Assay: yeast display, Sf9 membrane polyspecificity reagent, FACS + sequencing; frameworks hold sequencing errors
measuredEndpoint: polyreactivity (PSR sort gate)

sequence | assayResult
QVQLVESAGGLVQAGGSLRLSCAASGRIFTNNAMGWYRQAPGKERELVAAISRSGGRTYYADTVKGRFTISRDNAKNTVYVQMNSLKPEDTAVSYCAALGPYGSARRKYGYWGQGTQVTVSS | high polyreactivity
QVQLVESGGGLVQAGGSLRLSCAASGSIFKWNDMGWYRQSPGKERELVAAITWSGGRTYYADSVKGRFTISRDNAKNTVYLQMNSLKPEDTAVYYCAATQYRSDGWRYDYWGQGTQVTVSS | high polyreactivity
